Tested on: line DC-3F/AD
assayMethodText: Cytotoxicity (Microculture Tetrazolium Assay): reversal of resistance to actinomycin D, line DC-3F/AD
Type: cell-based, Chinese hamster
runConditions: 0.5 μM compound, 4 days
# maps each entry to its Reversion factors (cytotoxicity) with the line DC-3F/AD
Write the value as a bare number.

compound: C=CCNc1nc(NCC=C)nc(N2CCN(NCC3c4ccccc4CCc4ccccc43)CC2)n1 [Example 24]
observedMeasurement: 2.5

Fill in: Reversion factors (cytotoxicity) with the line DC-3F/AD of C=CCNc1nc(NCC=C)nc(N2CCC(NCC3c4ccccc4-c4ccccc43)CC2)n1 [Example 13] is ___
2.1

Again, but for C=CCNc1nc(NCC=C)nc(N2CCC(NCC3c4ccccc4N(C)S(=O)(=O)c4cc(Cl)ccc43)CC2)n1 (racemic) [Example 21]
1.2

Again, but for C=CCNc1nc(NCC=C)nc(N2CCC(NC3c4ccccc4CCc4ccccc43)CC2)n1 [Example 4]
21

Again, but for CNc1nc(NC)nc(N2CCC(NCC3c4ccccc4CCc4ccccc43)CC2)n1 [Example 14]
1.3

Again, but for C=CCNc1nc(NCC=C)nc(N2CCC(NCC3c4ccccc4C=Cc4ccccc43)CC2)n1 [Example 11]
2

Again, but for C=CCNc1nc(N)nc(N2CCC(NCC3c4ccccc4CCc4ccccc43)CC2)n1 [Example 18]
1.2

Again, but for C=CCNc1nc(NCC)nc(N2CCC(NCC3c4ccccc4COc4ccccc43)CC2)n1 (racemic) [Example 29]
1.7

Again, but for C=CCNc1nc(NCC)nc(N2CCC(NCC3c4ccccc4CCc4ccccc43)CC2)n1 [Example 22]
32

Again, but for C=CCNc1nc(NCC=C)nc(N2CCC(NCC3c4ccccc4COc4ccccc43)CC2)n1 (racemic) [Example 19]
3.8

Again, but for C=CCNc1nc(NCCC)nc(N2CCC(NCC3c4ccccc4CCc4ccccc43)CC2)n1 [Example 5]
3.8

Again, but for C=CCNc1nc(NCC=C)nc(N2CCC(NCC3c4ccccc4CCCc4ccccc43)CC2)n1 [Example 20]
3.4

Again, but for C=CCNc1nc(NCC=C)nc(NCC(O)CN2CCC(NCC3c4ccccc4CCc4ccccc43)CC2)n1 (stereo not shown) [Example 17]
0.8

Again, but for C=CCNc1nc(NCC=C)nc(N2CCC(NCC3c4ccccc4Oc4ccccc43)CC2)n1 [Example 9]
4.8

Again, but for C=CCNc1nc(NCC=C)nc(N2CCC(NCC3c4ccccc4CCc4ccccc43)CC2)n1 [Example 3]
43

Again, but for C=CCNc1nc(NCC=C)nc(N2CCC(NCC34CCC(c5ccccc53)c3ccccc34)CC2)n1 [Example 10]
1

---

System: line DC-3F/AD
assayMethodText: Cytotoxicity (Microculture Tetrazolium Assay): reversal of resistance to actinomycin D, line DC-3F/AD
Assay type: cell-based, Chinese hamster
runConditions: 5 μM compound, 4 days
property: Reversion factors (cytotoxicity) with the line DC-3F/AD
Write the value as a bare number.

Solved entries:
compound: C=CCNc1nc(NCC=C)nc(N2CCC(CNC3c4ccccc4CCc4ccccc43)CC2)n1 [Example 23]
targetOrSystem: line DC-3F/AD
observedMeasurement: 173

compound: CNc1nc(NC)nc(N2CCC(NCC3c4ccccc4CCc4ccccc43)CC2)n1 [Example 14]
targetOrSystem: line DC-3F/AD
observedMeasurement: 187

compound: C=CCNc1nc(NCC=C)nc(N2CCC(NCC3c4ccccc4NC(=O)c4ccccc43)CC2)n1 (racemic) [Example 27]
targetOrSystem: line DC-3F/AD
observedMeasurement: 2.1

Consider the record given below.
Fill in: Reversion factors (cytotoxicity) with the line DC-3F/AD of C=CCNc1nc(NCC=C)nc(NCCN2CCC(NCC3c4ccccc4CCc4ccccc43)CC2)n1 [Example 15] is ___
120
